# SUBJECT OF TEST: UniProt:P39086
# Sequence (P39086 whole entry): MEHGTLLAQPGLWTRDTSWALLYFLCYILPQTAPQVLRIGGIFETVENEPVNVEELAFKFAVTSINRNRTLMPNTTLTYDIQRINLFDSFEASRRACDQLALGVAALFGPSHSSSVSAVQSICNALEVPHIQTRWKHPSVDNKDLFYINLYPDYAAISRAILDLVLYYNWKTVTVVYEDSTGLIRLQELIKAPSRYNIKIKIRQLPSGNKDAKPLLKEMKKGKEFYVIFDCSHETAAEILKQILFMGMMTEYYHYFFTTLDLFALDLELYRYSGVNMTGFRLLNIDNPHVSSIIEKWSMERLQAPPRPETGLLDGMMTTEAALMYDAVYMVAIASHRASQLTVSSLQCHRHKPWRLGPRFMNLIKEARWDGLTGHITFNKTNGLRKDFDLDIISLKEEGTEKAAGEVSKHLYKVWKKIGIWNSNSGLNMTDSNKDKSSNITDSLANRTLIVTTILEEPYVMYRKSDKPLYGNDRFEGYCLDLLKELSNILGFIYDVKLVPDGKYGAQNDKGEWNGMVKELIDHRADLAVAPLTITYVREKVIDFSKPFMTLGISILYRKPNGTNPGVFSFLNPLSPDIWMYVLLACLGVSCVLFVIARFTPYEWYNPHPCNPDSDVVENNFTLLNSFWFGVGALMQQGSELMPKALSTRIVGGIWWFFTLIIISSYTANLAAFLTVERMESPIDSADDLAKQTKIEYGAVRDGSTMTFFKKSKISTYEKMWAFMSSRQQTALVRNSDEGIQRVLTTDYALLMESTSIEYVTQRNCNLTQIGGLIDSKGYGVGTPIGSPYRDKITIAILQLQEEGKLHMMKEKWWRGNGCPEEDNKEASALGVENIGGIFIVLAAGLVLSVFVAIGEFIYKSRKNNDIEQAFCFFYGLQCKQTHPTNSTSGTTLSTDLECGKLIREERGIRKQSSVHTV
# EXPERIMENT NOTES: Inhibition of glutamate-induced calcium influx in HEK293 cells expressing human GLUK5 by FLIPR assay
VALUE TYPE: pIC50
Quick note: pIC50 means taking -log10 of the concentration in moles per liter.

Q: Give recorded pIC50. N[C@@H](Cn1ccc(=O)n(Cc2ccsc2C(=O)O)c1=O)C(=O)O
A: 6.17

* * *

# SUBJECT OF TEST: Glutamate receptor ionotropic, AMPA (Rattus norvegicus, UniProt P19490+P19491+P19492+P19493)
VALUE TYPE: pKd
Bear in mind: pKd is minus log10 of a mol/L concentration; give just that figure.

Q: Give me measured pKd, please, for this compound: N[C@@H](Cn1ccc(=O)n(Cc2ccsc2C(=O)O)c1=O)C(=O)O
A: 4.15

* * *

# SUBJECT OF TEST: Glutamate receptor ionotropic, kainate 2 (Rattus norvegicus, UniProt P42260)
# Sequence (P42260 whole entry): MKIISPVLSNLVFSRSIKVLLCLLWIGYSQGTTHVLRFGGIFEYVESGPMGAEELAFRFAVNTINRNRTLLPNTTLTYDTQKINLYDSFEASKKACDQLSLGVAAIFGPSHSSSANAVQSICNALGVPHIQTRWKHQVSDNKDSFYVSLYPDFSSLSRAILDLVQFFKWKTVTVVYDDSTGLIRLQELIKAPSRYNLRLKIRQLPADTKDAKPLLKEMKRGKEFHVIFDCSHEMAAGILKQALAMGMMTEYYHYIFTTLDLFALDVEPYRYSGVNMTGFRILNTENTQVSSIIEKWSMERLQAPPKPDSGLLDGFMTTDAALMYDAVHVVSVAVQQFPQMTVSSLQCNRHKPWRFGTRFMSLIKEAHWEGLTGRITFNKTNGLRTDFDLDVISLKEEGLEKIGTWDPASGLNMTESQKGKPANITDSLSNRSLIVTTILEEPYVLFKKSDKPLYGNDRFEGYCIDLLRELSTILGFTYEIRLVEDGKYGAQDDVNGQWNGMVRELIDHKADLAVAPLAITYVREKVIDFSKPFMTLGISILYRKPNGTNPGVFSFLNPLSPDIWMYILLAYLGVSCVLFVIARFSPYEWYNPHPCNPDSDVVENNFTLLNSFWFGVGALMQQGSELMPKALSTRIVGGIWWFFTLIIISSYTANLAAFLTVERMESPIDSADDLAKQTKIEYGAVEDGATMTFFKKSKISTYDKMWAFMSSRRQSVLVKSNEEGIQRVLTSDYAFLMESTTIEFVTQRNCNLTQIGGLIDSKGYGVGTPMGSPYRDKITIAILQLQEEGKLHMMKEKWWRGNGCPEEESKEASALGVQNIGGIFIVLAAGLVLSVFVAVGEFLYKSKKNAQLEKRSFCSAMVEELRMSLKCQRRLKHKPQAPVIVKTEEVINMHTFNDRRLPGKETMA
Quick reference: Ki of the listed items.

Q: Answer briefly: Ki recorded on Glutamate receptor ionotropic, kainate 2 (Rattus norvegicus, UniProt P42260) for N[C@H](Cn1ccc(=O)n(Cc2ccsc2C(=O)O)c1=O)C(=O)O
A: > 1 mM

***
Q: Look up Glutamate receptor ionotropic, kainate 2 (Rattus norvegicus, UniProt P42260) data: Ki of N[C@@H](Cn1ccc(=O)n(Cc2ccoc2C(=O)O)c1=O)C(=O)O , then report it.
A: > 0.1 mM

Q: Tell me its Ki on Glutamate receptor ionotropic, kainate 2 (Rattus norvegicus, UniProt P42260): N[C@@H](Cn1ccc(=O)n(CCC(=O)O)c1=O)C(=O)O
A: > 1 mM

* * *

# SUBJECT OF TEST: Glutamate receptor ionotropic, AMPA (Rattus norvegicus, UniProt P19490+P19491+P19492+P19493)
VALUE TYPE: pIC50
Answer as the number alone; pIC50 is minus log10 of concentration in mol/L.

Q: State its pIC50: N[C@@H](Cn1ccc(=O)n(Cc2ccc(S(=O)(=O)O)cc2)c1=O)C(=O)O
A: 4.31

---
Q: Give recorded pIC50. N[C@@H](Cn1ccc(=O)n(Cc2nn[nH]n2)c1=O)C(=O)O
A: 4.34

Q: Output measured pIC50 for this item: NC(Cn1ccc(=O)n(Cc2ccc(P(=O)(O)O)cc2)c1=O)C(=O)O (racemic)
A: 3.97

* * *

# EXPERIMENT NOTES: Induction of calcium influx in HEK293 cells expressing human GLUK5/GLUK2 by FLIPR assay
VALUE TYPE: pEC50
Convention used: pEC50 is expressed as -log10 of the molar concentration.

Q: Provide measured pEC50 value, entry: N[C@@H](CCC(=O)O)C(=O)O [GLUTAMIC ACID]
A: 4.46

* * *

# SUBJECT OF TEST: Glutamate receptor ionotropic, AMPA (Rattus norvegicus, UniProt P19490+P19491+P19492+P19493)
VALUE TYPE: pIC50
pIC50 here: minus log base 10 of the concentration, concentration in moles per litre.

// worked examples, pIC50 included
Q: Provide only the value of recorded pIC50 for N[C@@H](Cn1ccc(=O)n(CCc2nnn[nH]2)c1=O)C(=O)O
A: 5.16

Q: Give the value of pIC50 reported for the following: N[C@@H](Cn1cc(I)c(=O)n(CCc2nn[nH]n2)c1=O)C(=O)O
A: 5.43

Q: Give pIC50 for N[C@@H](Cn1ccc(=O)n(Cc2ccc(-c3nn[nH]n3)cc2)c1=O)C(=O)O
A: 4.29

New cases:
Q: Give the measured pIC50 for N[C@@H](Cn1ccc(=O)n(Cc2ccoc2C(=O)O)c1=O)C(=O)O
A: 4.93

Q: // Input: N[C@@H](Cn1ccc(=O)n(Cc2ccsc2C(=O)O)c1=O)C(=O)O . Output its pIC50 only.
A: 4.51
